Values compiled from the supplement of paper PMC6555819.

Tested on: VDR homodimer (NR concentration 270 nM)
Assay: PBM binding z-score (relative to random genomic background probes); higher = stronger binding; sequences stand for … in GC…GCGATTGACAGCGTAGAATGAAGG
The reader will find reported PBM binding z-score values listed item by item below.

Would you please look over these solved cases?
seq-string: TCTTGTAGATCAACCGGAGGTTAAGAAAGATCGA
PBM binding z-score: -0.0131
--
seq-string: TAGACTAGGTCATTCAGGGGCCAGTATAGAAAGC
PBM binding z-score: 1.63

Prompt: Write down the reported PBM binding z-score (system: VDR homodimer (NR concentration 270 nM)) of CCTACTGGGCCATTCAGAGCTCATTGATCATATG
Completion: -0.387

Prompt: Write down the reported PBM binding z-score (system: VDR homodimer (NR concentration 270 nM)) of CTCGAAAGGTCGGTTTAGGTGAGTATACGGATAA
Completion: 1.04

Prompt: Write down the reported PBM binding z-score (system: VDR homodimer (NR concentration 270 nM)) of ATCTCTAGGTAAAGTTCAGTGCAAGATCGATAGA
Completion: 2.47

Prompt: Write down the reported PBM binding z-score (system: VDR homodimer (NR concentration 270 nM)) of TCATATAGGTAAAAGGTGAAAGACGGTGTGGTAA
Completion: 0.152

Prompt: Write down the reported PBM binding z-score (system: VDR homodimer (NR concentration 270 nM)) of TCATATAGGTAAGAGGTGAAAGTCGGTGTGGTAA
Completion: 0.13

Prompt: Write down the reported PBM binding z-score (system: VDR homodimer (NR concentration 270 nM)) of CCTTACGCGTCACGAGGTTATAGCACGACGAGCG
Completion: 0.734

Prompt: Write down the reported PBM binding z-score (system: VDR homodimer (NR concentration 270 nM)) of GGAACGAGGGCATTCGAGCTGATAGCATGGCGAT
Completion: 1.53

Prompt: Write down the reported PBM binding z-score (system: VDR homodimer (NR concentration 270 nM)) of CCTAATAGTTGACCATAAGGGCAACCGAAGCTCG
Completion: 0.915

Prompt: Write down the reported PBM binding z-score (system: VDR homodimer (NR concentration 270 nM)) of CCAAGTAGGTTATGGGGCATTCAGGCAACGGTGA
Completion: 0.318

Prompt: Write down the reported PBM binding z-score (system: VDR homodimer (NR concentration 270 nM)) of TAGCCGAGGTCATTGGGCCAGTATAGTACGCATC
Completion: 5.01

Prompt: Write down the reported PBM binding z-score (system: VDR homodimer (NR concentration 270 nM)) of CCGACTGGGGCAGAAAGGTTATCATACCATCCGG
Completion: -0.196

Prompt: Write down the reported PBM binding z-score (system: VDR homodimer (NR concentration 270 nM)) of ATCTCTAGGTAAACTTCAGTGAAAGATCGATAGA
Completion: 0.34

Prompt: Write down the reported PBM binding z-score (system: VDR homodimer (NR concentration 270 nM)) of AGAACGACGGCAATGAGTTGATAGCACGGGTGGC
Completion: -0.0582

Prompt: Write down the reported PBM binding z-score (system: VDR homodimer (NR concentration 270 nM)) of ATCGAAAGATCGAAGGTGAGTATACCCACCCGAA
Completion: -0.259

Prompt: Write down the reported PBM binding z-score (system: VDR homodimer (NR concentration 270 nM)) of ATCTCTAGGTAATAAGTTCAGTGAAAGAGAGGAC
Completion: 2.41

Prompt: Write down the reported PBM binding z-score (system: VDR homodimer (NR concentration 270 nM)) of TACCCTAGGTCATGCGGGCCAGTATAGTGTCGGC
Completion: 1.26

* * *

Test system: RARb homodimer (NR concentration 270 nM)
Test: PBM binding z-score (relative to random genomic background probes); higher = stronger binding; sequences stand for … in GC…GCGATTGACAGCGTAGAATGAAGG
Output 1 for PBM binding z-score not less than 2; output -1 otherwise.

These recorded examples may help you get a feel for the data.
seq-string: TAGCCTAGGTCATGGGGGCCAGTATAGTGTCGGC
label-value: 1
--
seq-string: TCAGACAGGTGAAGGTAAGTCAGGTACGCAGTCG
label-value: -1
--
seq-string: CCTTACGGGTCACAGACAGGTTATAGCATTTGGA
label-value: 1
--
seq-string: ATACCAAGGTGATGGTGAGGTCGTTGATACTAAC
label-value: -1

Prompt: Does PBM binding z-score meet or surpass 2 for GCTCGGAGGAGAAGGTCAGAGCTTTGTCCGTAGA ?
Completion: 1

Prompt: Does PBM binding z-score meet or surpass 2 for CCTGCTAGGTCAATGGTCAGGTAAAGCAGCTCGC ?
Completion: 1

* * *

Test system: THRa homodimer (NR concentration 90 nM)
Experiment: PBM binding z-score (relative to random genomic background probes); higher = stronger binding; sequences stand for … in GC…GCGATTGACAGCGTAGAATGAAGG
The reader will find reported PBM binding z-score values listed item by item below.
# output: bare number, no unit

Would you please look over these solved cases?
seq-string: CGTCATAGTTCAACTAAGGTAACGTAAAGCACGC
test-system: THRa homodimer (NR concentration 90 nM)
PBM binding z-score: 1.9
--
seq-string: GGAACGAGGGCAAATTGATAGCAGAGTTTGATGG
test-system: THRa homodimer (NR concentration 90 nM)
PBM binding z-score: -0.171
--
seq-string: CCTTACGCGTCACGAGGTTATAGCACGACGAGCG
test-system: THRa homodimer (NR concentration 90 nM)
PBM binding z-score: 0.967
--
seq-string: CATACAGGGTCAGCTAGGCCATAGTAGGGACGGC
test-system: THRa homodimer (NR concentration 90 nM)
PBM binding z-score: 0.737
--
seq-string: ACTATTAGTTGGCTTAGGGCAACCGATACGACGC
test-system: THRa homodimer (NR concentration 90 nM)
PBM binding z-score: 0.529

Prompt: Return value of PBM binding z-score for input GGAACGAGGGCATAGTTGATAGCATCTGTCGACG , no commentary.
Completion: -0.185

Prompt: Return value of PBM binding z-score for input CCTACTGGGCCATCAGGTCCTTGATATCAACGTT , no commentary.
Completion: 0.322

Prompt: Return value of PBM binding z-score for input GGAACGAGGGCATTCGAGATGATAGCATGGCGAT , no commentary.
Completion: -0.487

Prompt: Return value of PBM binding z-score for input AGAACGAGGGCAATGGGTTGATAGCACGGGTGGC , no commentary.
Completion: 0.645

Prompt: Return value of PBM binding z-score for input ACACACAGGTGAGTGAAGGTAACTCAGCTGGACG , no commentary.
Completion: -0.409

Prompt: Return value of PBM binding z-score for input TCATATAGGTAAACAGGCGAAAGTCCGTAAGTTA , no commentary.
Completion: -0.0757

Prompt: Return value of PBM binding z-score for input TCTGCTAGGTCAGTTGGTCAGCAAACGAGCTGCC , no commentary.
Completion: -0.0215

Prompt: Return value of PBM binding z-score for input TCAGACACGTGAAGGTAACTCAGGTACGCAGTCG , no commentary.
Completion: -0.125

Prompt: Return value of PBM binding z-score for input CGAACTAGCTCATTGACAGGACAGTGAATAGTAA , no commentary.
Completion: -0.291

Prompt: Return value of PBM binding z-score for input CGTCCAAGGTCAGGAGGTCAGTGAAAGCGACGTG , no commentary.
Completion: 2.68

Prompt: Return value of PBM binding z-score for input TCGAGTATGTTAGTCGGGGCATTCAGCCAACATA , no commentary.
Completion: -0.431

Prompt: Return value of PBM binding z-score for input CGAACTAGGTCAGAACAGGGCAGTGAAGGATGAT , no commentary.
Completion: 0.148

Prompt: Return value of PBM binding z-score for input ATATGTAGGTTACATCCGGGTCCTTCAGGCTATG , no commentary.
Completion: 0.753

Prompt: Return value of PBM binding z-score for input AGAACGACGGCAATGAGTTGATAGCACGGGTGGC , no commentary.
Completion: -1.12

Prompt: Return value of PBM binding z-score for input GCTTACGGGTCAAAGGTTATAGCATGAATAGAAT , no commentary.
Completion: 0.25

Prompt: Return value of PBM binding z-score for input ATCGAAAGGTCGTGAGGTGAATATACAGAAAGGC , no commentary.
Completion: 1.77

Prompt: Return value of PBM binding z-score for input TCGAGTAGGTTACTCGGGGCATTCAGCCAACATA , no commentary.
Completion: -0.17

Prompt: Return value of PBM binding z-score for input ATATGTAGGTTATCGAGTCATTCAGTTTGCGCAT , no commentary.
Completion: 0.232

Prompt: Return value of PBM binding z-score for input ACTAGCAGGCCAAGGGTCACACAAGATTAGTCCG , no commentary.
Completion: 0.442

Prompt: Return value of PBM binding z-score for input CGTCCAAGGTCAACGTCAGTGAAAGAGACTCGAA , no commentary.
Completion: 2.55

Prompt: Return value of PBM binding z-score for input CCTAGCAGGCCAATCCGGGTCACTCAAGGCTTGA , no commentary.
Completion: 1.72
